B1: MYBL2 (parent)
chain: IAKHLKGRLGKQCRERWHNHLNPE

Variants of: B1
TEST NAME: protein stability index of a GFP-peptide fusion (GPS, HEK-293T) (PSI 1-6); higher = more stable;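 also: lentivirally expressed fusions sorted by FACS into six bins by GFP to DsRed ratio, PSI derived from sequencing read proportions per bin multiplied by bin number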
ASSAY SETUP: c terminus: a fixed tail appended
Returns one of true (1) or false (0); true (1) when protein stability index is >= 2.

Is reported protein stability index greater than or equal to 2 here: IAKHLKGRLGKQCRERWHNHLNEE [P23E]
false (0)

Is reported protein stability index greater than or equal to 2 here: IAKHLKGRLGKQCRERWPNHLNPE [H18P]
false (0)

Is reported protein stability index greater than or equal to 2 here: IAKHLKGRNGKQCRERWHNHLNPE [L9N]
true (1)

Is reported protein stability index greater than or equal to 2 here: IAKHLKGRLGWQCRERWHNHLNPE [K11W]
true (1)

Is reported protein stability index greater than or equal to 2 here: IAKHLKGRLGKQCRERWHWHLNPE [N19W]
true (1)

Is reported protein stability index greater than or equal to 2 here: IAKHLKGRLGKQCRERWHNHLNCE [P23C]
true (1)

Is reported protein stability index greater than or equal to 2 here: IAKHLKGRLGKQCRERWHNHMNPE [L21M]
false (0)

Is reported protein stability index greater than or equal to 2 here: IALHLKGRLGKQCRERWHNHLNPE [K3L]
true (1)

Is reported protein stability index greater than or equal to 2 here: IAKHLKGRLGKQCREWWHNHLNPE [R16W]
true (1)

Is reported protein stability index greater than or equal to 2 here: IAKHLKGRLGKQCRERWQNHLNPE [H18Q]
true (1)

Is reported protein stability index greater than or equal to 2 here: IAKHLKGRLGKQCRERWGNHLNPE [H18G]
false (0)

Is reported protein stability index greater than or equal to 2 here: IAKHLKGRMGKQCRERWHNHLNPE [L9M]
true (1)

Is reported protein stability index greater than or equal to 2 here: IAKHLKGRLGKQCRERWFNHLNPE [H18F]
true (1)

Is reported protein stability index greater than or equal to 2 here: IMKHLKGRLGKQCRERWHNHLNPE [A2M]
false (0)

Is reported protein stability index greater than or equal to 2 here: IAKHLKGRRGKQCRERWHNHLNPE [L9R]
true (1)

Is reported protein stability index greater than or equal to 2 here: IAKHLKGRLGKQCRERWHNHRNPE [L21R]
true (1)

Is reported protein stability index greater than or equal to 2 here: IAKHLEGRLGKQCRERWHNHLNPE [K6E]
false (0)

Is reported protein stability index greater than or equal to 2 here: IAKHLWGRLGKQCRERWHNHLNPE [K6W]
false (0)

Is reported protein stability index greater than or equal to 2 here: IAKHLKYRLGKQCRERWHNHLNPE [G7Y]
true (1)

Is reported protein stability index greater than or equal to 2 here: IAKHLKGRLGKQCRERFHNHLNPE [W17F]
true (1)

Is reported protein stability index greater than or equal to 2 here: IAKHLKGRLGKQCRERWHCHLNPE [N19C]
false (0)

Is reported protein stability index greater than or equal to 2 here: DAKHLKGRLGKQCRERWHNHLNPE [I1D]
true (1)

Is reported protein stability index greater than or equal to 2 here: IAKHLKGRLGKFCRERWHNHLNPE [Q12F]
true (1)

Is reported protein stability index greater than or equal to 2 here: IAKHLKGELGKQCRERWHNHLNPE [R8E]
true (1)

Is reported protein stability index greater than or equal to 2 here: IAKHLKRRLGKQCRERWHNHLNPE [G7R]
true (1)

Is reported protein stability index greater than or equal to 2 here: IAKHLKGRLGKQCRERWHNHLNPT [E24T]
true (1)

Is reported protein stability index greater than or equal to 2 here: IAKHLKGRLGKKCRERWHNHLNPE [Q12K]
false (0)

Is reported protein stability index greater than or equal to 2 here: IAKHLKGRLEKQCRERWHNHLNPE [G10E]
false (0)

Is reported protein stability index greater than or equal to 2 here: IAKHLKGRLGQQCRERWHNHLNPE [K11Q]
false (0)

Is reported protein stability index greater than or equal to 2 here: IAKHLKNRLGKQCRERWHNHLNPE [G7N]
false (0)

Is reported protein stability index greater than or equal to 2 here: IAKHLKGRLGKQTRERWHNHLNPE [C13T]
true (1)

Is reported protein stability index greater than or equal to 2 here: IAKHTKGRLGKQCRERWHNHLNPE [L5T]
true (1)

Is reported protein stability index greater than or equal to 2 here: IAKHLKGRLGKQCRERWHNHLNTE [P23T]
true (1)

Is reported protein stability index greater than or equal to 2 here: IAKHLQGRLGKQCRERWHNHLNPE [K6Q]
false (0)

Is reported protein stability index greater than or equal to 2 here: IAKHLKGRLGKQCRERWHNHLFPE [N22F]
true (1)

Is reported protein stability index greater than or equal to 2 here: IAKHLKTRLGKQCRERWHNHLNPE [G7T]
true (1)

Is reported protein stability index greater than or equal to 2 here: IAKHLKGRLGKQCRERWHLHLNPE [N19L]
true (1)

Is reported protein stability index greater than or equal to 2 here: IAKHLKGRLGKQLRERWHNHLNPE [C13L]
false (0)

Is reported protein stability index greater than or equal to 2 here: IAKHLKGRLGKQCREKWHNHLNPE [R16K]
true (1)

Is reported protein stability index greater than or equal to 2 here: MAKHLKGRLGKQCRERWHNHLNPE [I1M]
true (1)

Is reported protein stability index greater than or equal to 2 here: IAKHLKCRLGKQCRERWHNHLNPE [G7C]
false (0)

Is reported protein stability index greater than or equal to 2 here: IAKHLKGRLGKQCRERWHNHLNPC [E24C]
false (0)

Is reported protein stability index greater than or equal to 2 here: IAQHLKGRLGKQCRERWHNHLNPE [K3Q]
true (1)

Is reported protein stability index greater than or equal to 2 here: IAKHLKGRLGKQCRERWHNHLNQE [P23Q]
false (0)

Is reported protein stability index greater than or equal to 2 here: IAKHLKLRLGKQCRERWHNHLNPE [G7L]
true (1)

Is reported protein stability index greater than or equal to 2 here: IAKHLKGRLGKQCRERWHNHLDPE [N22D]
true (1)

Is reported protein stability index greater than or equal to 2 here: IAKHLKERLGKQCRERWHNHLNPE [G7E]
false (0)

Is reported protein stability index greater than or equal to 2 here: IAKHLKGRLGKQCRERWHNWLNPE [H20W]
true (1)

Is reported protein stability index greater than or equal to 2 here: IKKHLKGRLGKQCRERWHNHLNPE [A2K]
true (1)

Is reported protein stability index greater than or equal to 2 here: IAKHLKGRLGKQCRERWHNHLNPN [E24N]
true (1)

Is reported protein stability index greater than or equal to 2 here: IAKHLSGRLGKQCRERWHNHLNPE [K6S]
false (0)

Is reported protein stability index greater than or equal to 2 here: IAKHLKGRLGKQCRERWHNALNPE [H20A]
false (0)

Is reported protein stability index greater than or equal to 2 here: IAKHLKGILGKQCRERWHNHLNPE [R8I]
false (0)

Is reported protein stability index greater than or equal to 2 here: IAKHLKGRLGKQCRERWHNHLNPA [E24A]
true (1)

Is reported protein stability index greater than or equal to 2 here: IAKHSKGRLGKQCRERWHNHLNPE [L5S]
true (1)

Is reported protein stability index greater than or equal to 2 here: IAKHLKGRLGKQCHERWHNHLNPE [R14H]
true (1)

Is reported protein stability index greater than or equal to 2 here: IVKHLKGRLGKQCRERWHNHLNPE [A2V]
false (0)

Is reported protein stability index greater than or equal to 2 here: IAKHLKGRLGKQCRERHHNHLNPE [W17H]
true (1)

Is reported protein stability index greater than or equal to 2 here: IAKHLKGRLGKICRERWHNHLNPE [Q12I]
true (1)
